FYI, the data here is from patent US9765018B2.

- System: UniProt P14902
- Assay Method Text: LLE_IDO_ABS_DR (IDO assay, method not described)
pIC50: −log10 of the molar value.
Parameter Measured: pIC50

>>> df
                                 mol_smiles  numeric_value
0  O=C(Nc1ccc(C2CC2)cc1)Nc1cc(-c2ccccc2-c2nnn[nH]2)cc(CC2CC2)c1OCCC(F)(F)F           7.40
1  Cc1ccc(NC(=O)Nc2cc(-c3ccccc3-c3nn[nH]n3)ccc2OC(C(C)C)C(C)C)cc1           7.52
2  CC(C)(C)c1ccccc1Oc1ccc(-c2ccc(Cl)cc2-c2nnn[nH]2)cc1NC(=O)Nc1ccccc1Cl           5.83
3  COc1ccc(-c2ccc(Oc3cccc(C)c3C)c(NC(=O)Nc3ccccc3Cl)c2)cc1C(=O)O           6.37
4  Cc1cccc(NC(=O)Nc2cc(-c3ccccc3-c3nnn[nH]3)cc(CC3CC3)c2OCC2CC2)c1           5.53
5  COc1ccc(-c2ccc(Oc3cccc4c3CCC4)c(NC(=O)Nc3cccc(C)c3)c2)cc1C(=O)O           6.29
6  COc1ccc(-c2ccc(Oc3cccc4c3CCCC4)c(NC(=O)Nc3ccc(C)c(C)c3)c2)cc1C(=O)O           6.28

====

// reported IC50 for each item listed
- System: IDO (Homo sapiens (Human), UniProt P14902)
- Sequence (P14902 whole entry): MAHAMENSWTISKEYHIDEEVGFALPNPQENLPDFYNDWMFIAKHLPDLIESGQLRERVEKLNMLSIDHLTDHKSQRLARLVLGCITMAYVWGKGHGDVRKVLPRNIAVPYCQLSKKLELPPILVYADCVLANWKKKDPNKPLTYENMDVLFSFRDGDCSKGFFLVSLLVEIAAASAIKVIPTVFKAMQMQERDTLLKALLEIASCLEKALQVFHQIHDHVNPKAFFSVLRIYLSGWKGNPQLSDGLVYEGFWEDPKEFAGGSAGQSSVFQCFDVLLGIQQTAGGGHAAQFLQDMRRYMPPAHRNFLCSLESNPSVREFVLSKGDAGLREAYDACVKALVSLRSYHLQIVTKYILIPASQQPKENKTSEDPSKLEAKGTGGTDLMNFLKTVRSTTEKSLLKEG
- Assay Method Text: Kynurenine assay in IFN-γ-stimulated Hela cells
- Assay type: cell-based
- Protocol Conditions: 20 h, read-out: Hela Kyurenine (IC50)
Parameter Measured: IC50 (nM)

>>> print(df.to_string())
                                    molecule  parameter_measured  numeric_value
 0  COc1ccc(-c2ccc(Oc3ccccc3C(C)(C)C)c(NC(=O)Nc3ccc(N(C)C)cc3)c2)cc1C(=O)O                IC50           1010
 1  CCCCNC(=O)Nc1cc(-c2ccccc2-c2nnn[nH]2)ccc1Oc1ccccc1C(C)(C)C                IC50            340
 2  COc1ccc(-c2ccc(Oc3ccccc3C(C)(C)C)c(NC(=O)Nc3cccc(C#N)c3)c2)cc1C(=O)O                IC50            720
 3  CC(C)(C)c1ccccc1Oc1ccc(-c2ccc(C(=O)O)c(Cl)c2)cc1NC(=O)Nc1ccccc1Cl                IC50            300
 4  COc1ccc(-c2ccc(O[C@@H]3CCCC[C@H]3C)c(NC(=O)Nc3ccccc3Cl)c2)cc1C(=O)O (relative stereo)                IC50            990
 5  COc1ccc(-c2ccc(Oc3ccccc3C(C)(C)C)c(NC(=O)Nc3cccc(Cl)c3)c2)cc1C(=O)O                IC50            110
 6  COc1ccc(-c2ccc(Oc3cccc4c3CCCC4)c(NC(=O)Nc3ccccc3Cl)c2)cc1C(=O)O                IC50             20
 7  COc1ccc(-c2ccc(Oc3ccc4c(c3)CCCC4)c(NC(=O)Nc3ccc(C)cc3)c2)cc1C(=O)O                IC50            260
 8  COc1ccc(-c2ccc(Oc3ccccc3Cl)c(NC(=O)Nc3ccc(C)cc3)c2)cc1C(=O)O                IC50            830
 9  Cc1ccccc1NC(=O)Nc1cc(-c2ccccc2-c2nnn[nH]2)ccc1Oc1ccccc1C(C)(C)C                IC50             90
10  COc1ccc(-c2ccc(Oc3cccc(C)c3C)c(NC(=O)Nc3cccc(C)c3)c2)cc1C(=O)O                IC50             80
11  CC(C)(C)c1ccccc1Oc1ccc(-c2ccccc2-c2nnn[nH]2)cc1NC(=O)Nc1ccccc1                IC50            150
12  CCNC(=O)Nc1cc(-c2cccc(C(=O)O)c2)ccc1Oc1ccccc1C(C)(C)C                IC50            930
13  COc1ccc(-c2ccc(Oc3ccccc3C(C)(C)C)c(NC(=O)Nc3ccc(C)cc3C)c2)cc1C(=O)O                IC50            170
14  CCCc1ccccc1Oc1ccc(-c2ccc(OC)c(C(=O)O)c2)cc1NC(=O)Nc1ccccc1Cl                IC50            400
